# EXPERIMENT DESCRIPTION: Brain tissue pharmacokinetics of G–A after a single oral dose in ICR mice (HPLC, PKSolver)
# Assay type: in vivo
# EXPERIMENTAL SETUP: mouse, brain tissue, oral 200 mg/kg, n = 8, read-out: AUC0-1440 min (converted)
MEASUREMENT LABEL: AUC(0-t) (ng·h/mL)

{"COMPOUND": "COC(=O)[C@@]12CC[C@]3(C)C([C@H](O)[C@H](O)[C@@]4([C@@H](C)O)COC(=O)C=C[C@H]43)[C@@]1(C)CC[C@@]1(C)CC=C(C)C[C@]12O (stereo partly shown)", "UNITS LABEL": "ng·h/mL", "OBSERVED VALUE": 31900}
